# target: recombinant monomeric SARS-CoV-1 S1 protein (SARS-CoV-1, UniProt P59594 14-667)
# procedureText: flow cytometry, blocking of binding to hACE-2 cells
Listing: percent blocking of selected binders
Give the value, in units of %, as a plain number.

Some solved entries appear below for comparison.
[
  {
    "binder": "1035709 (antibody, V domains shown) VH: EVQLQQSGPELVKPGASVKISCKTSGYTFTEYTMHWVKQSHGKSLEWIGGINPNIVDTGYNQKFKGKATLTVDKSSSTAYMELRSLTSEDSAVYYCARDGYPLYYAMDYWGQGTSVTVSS VL: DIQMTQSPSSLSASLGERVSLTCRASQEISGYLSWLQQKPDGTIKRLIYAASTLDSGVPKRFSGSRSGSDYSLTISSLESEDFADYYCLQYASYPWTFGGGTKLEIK",
    "unitString": "%",
    "percent blocking": 0
  },
  {
    "binder": "1035240 (antibody, V domains shown) VH: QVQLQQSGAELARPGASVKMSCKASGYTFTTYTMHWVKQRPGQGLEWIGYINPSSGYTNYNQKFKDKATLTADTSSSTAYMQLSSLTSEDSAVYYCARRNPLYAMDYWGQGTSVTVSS VL: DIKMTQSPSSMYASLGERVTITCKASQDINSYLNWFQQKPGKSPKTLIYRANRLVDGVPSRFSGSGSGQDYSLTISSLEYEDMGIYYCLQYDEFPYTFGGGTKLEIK",
    "unitString": "%",
    "percent blocking": 0
  }
]

# next binder below
Prompt: So what's the measured percent blocking for this one? 1035740 (antibody, V domains shown) VH: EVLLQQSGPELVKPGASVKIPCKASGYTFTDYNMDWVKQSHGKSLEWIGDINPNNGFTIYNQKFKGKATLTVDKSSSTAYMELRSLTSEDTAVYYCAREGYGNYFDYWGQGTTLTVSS VL: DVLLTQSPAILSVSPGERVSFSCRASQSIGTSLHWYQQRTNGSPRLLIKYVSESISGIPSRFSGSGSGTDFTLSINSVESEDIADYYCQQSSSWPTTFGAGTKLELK
Response: 92.4
